System: LXRb:RXRa (NR concentration 270 nM, RXRa partner concentration 90 nM)
protocolText: PBM binding z-score (relative to random genomic background probes); higher = stronger binding; sequences stand for … in GC…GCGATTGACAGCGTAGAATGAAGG
reportedMetric: PBM binding z-score
Respond with the number and no other words.

Sample records with PBM binding z-score:
{"sequenceString": "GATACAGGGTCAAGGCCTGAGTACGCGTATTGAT", "PBM binding z-score": 3.35}
{"sequenceString": "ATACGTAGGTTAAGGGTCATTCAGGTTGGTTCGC", "PBM binding z-score": 4.46}

# query: PBM binding z-score of entry "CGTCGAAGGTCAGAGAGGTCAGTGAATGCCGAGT"
4.34

Give its PBM binding z-score value. Item: "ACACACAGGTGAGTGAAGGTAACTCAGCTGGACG"
-0.0782

Request the reported PBM binding z-score associated with "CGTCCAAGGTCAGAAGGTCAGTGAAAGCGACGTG"
3.22

For "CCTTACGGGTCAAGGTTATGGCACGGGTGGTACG" , what is its reported PBM binding z-score?
2.81

Name the recorded PBM binding z-score for "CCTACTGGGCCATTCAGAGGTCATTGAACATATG" .
4.04

Return reported PBM binding z-score; argument: "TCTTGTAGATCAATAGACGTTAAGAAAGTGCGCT"
0.165

----------
Quick reference: PBM binding z-score of the listed items.
System: RARa homodimer (NR concentration 270 nM)
protocolText: PBM binding z-score (relative to random genomic background probes); higher = stronger binding; sequences stand for … in GC…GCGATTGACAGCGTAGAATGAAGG
# output: bare number, no unit

Recorded PBM binding z-score, per entry:
{"sequenceString": "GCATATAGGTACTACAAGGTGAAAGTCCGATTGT", "reportedMetric": "PBM binding z-score", "experimentalResult": -0.147}
{"sequenceString": "ATATGTAGGTTATTGGGTCATTCAGTTTGCGCAT", "reportedMetric": "PBM binding z-score", "experimentalResult": 2.83}
{"sequenceString": "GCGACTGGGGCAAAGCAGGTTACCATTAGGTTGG", "reportedMetric": "PBM binding z-score", "experimentalResult": -0.535}
{"sequenceString": "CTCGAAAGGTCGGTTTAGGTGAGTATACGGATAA", "reportedMetric": "PBM binding z-score", "experimentalResult": 0.736}
{"sequenceString": "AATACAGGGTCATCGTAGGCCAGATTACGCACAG", "reportedMetric": "PBM binding z-score", "experimentalResult": 0.954}

Bench note: what PBM binding z-score did "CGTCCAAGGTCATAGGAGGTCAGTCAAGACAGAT" show?
1.15

----------
Tested on: PPARg:RXRa IVT, anti-PPARg (NR concentration 270 nM, RXRa partner concentration 90 nM)
protocolText: PBM binding z-score (relative to random genomic background probes); higher = stronger binding; sequences stand for … in GC…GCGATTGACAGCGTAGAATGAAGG
Each entry gets false if its PBM binding z-score stays under 4, and true if its PBM binding z-score is 4 or above.

{"sequenceString": "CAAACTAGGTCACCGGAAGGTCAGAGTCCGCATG", "assignedLabel": "true"}
{"sequenceString": "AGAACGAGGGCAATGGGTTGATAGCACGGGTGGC", "assignedLabel": "false"}

Does "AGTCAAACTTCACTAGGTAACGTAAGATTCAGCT" have a reported PBM binding z-score of at least 4?
false

Entry "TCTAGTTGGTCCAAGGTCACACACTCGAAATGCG" : is its PBM binding z-score no less than 4?
false

Please indicate if the recorded PBM binding z-score for "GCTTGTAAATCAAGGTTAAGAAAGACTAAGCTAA" meets or exceeds 4.
false

Kindly determine if PBM binding z-score recorded for "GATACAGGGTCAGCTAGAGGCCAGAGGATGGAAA" is above or exactly 4.
false

# bool: PBM binding z-score of "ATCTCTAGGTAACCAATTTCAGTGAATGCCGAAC" >= 4
false

Please tell me: is the sequence "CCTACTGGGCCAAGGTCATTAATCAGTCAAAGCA" at or over 4 in terms of PBM binding z-score?
true

Is the recorded value of PBM binding z-score equal to or greater than 4 for this sequence? "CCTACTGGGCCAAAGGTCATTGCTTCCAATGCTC"
true
